system: LPS-induced NO production in N9 microglial cells; experiment: LPS-induced NO production (Griess assay); type: cell-based, mouse; details: Mus musculus, N9, 24 h, 50 μM compound, LPS 100 ng/mL, 24 h; mean ± S.E.M.; read-out: % Inhibition of NO Production
PARAMETER: inhibition at 50 µM

>>> readout_value("C=CC(C=Cc1ccc(O)cc1)c1ccc(O)cc1 (stereo not drawn) [Compound 23, trans-Hinokiresinol]")
"83%"
>>> readout_value("O=C(c1ccc(O)cc1)c1c(O)cc(O)cc1O [Compound 3, Iriflophene]")
"35.9%"
>>> readout_value("C=CCOC1O[C@H](CO)[C@@H](O)[C@H](O)[C@H]1O (stereo in doubt) [Compound 26, α-D-Glucose monoallyl ether]")
"29%"

====

experiment: MTT assay for cell viability; settings: mouse, N9 microglial cells, % Cell Viability, 25 μM compound, 24 h, MTT; mean ± S.E.M.
Recorded viability at 24 h, 25 µM for the following molecules
PARAMETER: viability at 24 h, 25 µM (%)

>>> readout_value("COc1cc(O)c(C(=O)c2ccc(O)cc2)c(O)c1 [Compound 1, 2,6,4′-trihydroxy-4-methoxybenzophenone]")
98.7
>>> readout_value("O=c1cc(-c2ccc(O)cc2)oc2cc(O)c([C@@H]3O[C@H](CO)[C@@H](O)[C@H](O)[C@H]3O)c(O)c12")
135
>>> readout_value("C[C@@H]1O[C@@H](O[C@H]2[C@H](OC(=O)[C@]34CCC(C)(C)C[C@H]3C3=CC[C@@H]5[C@@]6(C)C[C@H](O)[C@H](O[C@@H]7O[C@H](CO)[C@@H](O)[C@H](O[C@@H]8O[C@H](CO)[C@@H](O)[C@H](O)[C@H]8O)[C@H]7O)[C@@](C)(CO)[C@@H]6CC[C@@]5(C)[C@]3(C)C[C@H]4O)OC[C@H](O)[C@@H]2O)[C@H](O)[C@H](O)[C@H]1O[C@@H]1OC[C@@H](O)[C@H](O[C@@H]2OC[C@](O)(CO)[C@H]2O)[C@H]1O [Compound 17, Polygalacin D2]")
97.5
>>> readout_value("O=C(c1ccc(O)cc1)c1c(O)cc(O)cc1O")
107
>>> readout_value("CC(CCC1(O)OC2CC3C4CCC5CC(OC6OC(CO)C(O)C(O)C6OC6OC(CO)C(O)C(O)C6O)CCC5(C)C4CCC3(C)C2C1C)COC1OC(CO)C(O)C(O)C1O (centres unmarked) [Compound 6, Anemarnoside B]")
115
>>> readout_value("O=c1cc(-c2ccc(O)cc2)oc2c([C@@H]3O[C@H](CO)[C@@H](O)[C@H](O)[C@H]3O)c(O)cc(O)c12")
90.5
>>> readout_value("N[C@@H](Cc1c[nH]c2ccccc12)C(=O)O")
105
>>> readout_value("COc1ccc(C(=O)c2ccc(O)cc2)c(OC2OC(CO)C(O)C(O)C2O)c1O (centres unmarked) [Compound 2, Zimoside A]")
97.2

====

test system: LPS-induced NO production in N9 microglial cells; assay: LPS-induced NO production (Griess assay); assay type: cell-based, mouse; conditions: Mus musculus, N9, 24 h, read-out: % Inhibition of NO Production, 50 μM compound, LPS 100 ng/mL, 24 h; mean ± S.E.M.
Below, each entry is listed with its recorded inhibition at 50 µM.
PARAMETER: inhibition at 50 µM (%)

>>> readout_value("CC(CCC1(O)OC2CC3C4CCC5CC(OC6OC(CO)C(OC7OC(C)C(O)C(O)C7O)C(O)C6OC6OC(C)C(O)C(O)C6O)C(O)CC5(C)C4CCC3(C)C2C1C)COC1OC(CO)C(O)C(O)C1O (stereo not drawn) [Compound 8, Tuberoside G]")
13.2
>>> readout_value("COC1(CCC(C)COC2OC(CO)C(O)C(O)C2O)OC2CC3C4CC=C5CC(O)CC(OC6OC(C)C(O)C(OC7OCC(O)C(O)C7O)C6OC6OC(CO)C(O)C(O)C6O)C5(C)C4CCC3(C)C2C1C (stereo not drawn) [Compound 9, Spicatoside B]")
24
>>> readout_value("CC1=C(CCC(C)COC2OC(CO)C(O)C(O)C2O)OC2CC3C4CCC5CC(OC6OC(CO)C(O)C(O)C6OC6OC(CO)C(O)C(O)C6O)C(O)CC5(C)C4CCC3(C)C12 (stereo not drawn)")
34.8
>>> readout_value("CCC1C(OC(=O)CCC(C)COC2OC(CO)C(O)C(O)C2O)CC2C3CCC4CC(OC5OC(CO)C(O)C(O)C5OC5OC(CO)C(O)C(O)C5O)CCC4(C)C3CCC12C (stereo not drawn) [Compound 19, Anemarnoside A]")
66.9
>>> readout_value("CC(CCC1(O)OC2CC3C4CCC5CC(OC6OC(CO)C(O)C(O)C6OC6OC(CO)C(O)C(O)C6O)CCC5(C)C4CCC3(C)C2C1C)COC1OC(CO)C(O)C(O)C1O (stereo not drawn) [Compound 6, Anemarnoside B]")
17.2
>>> readout_value("N[C@@H](Cc1c[nH]c2ccccc12)C(=O)O")
24
